Assay: chemical genetic growth profiling, strain panel (AID 1159580);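 further: tested at 20 µM; growth read once vehicle control cultures reached saturation at 30 °C; 1 = growth at the plate median or of vehicle wells; lower values mean less growth of the strain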
Conditions: S. cerevisiae deletion strains, growth OD, locus YML124C, strain tub3, hits give low values
Out of some 5,500 compounds screened, about 2,000 (36%) were called active. Not shown: some 18% with an inconclusive outcome. Some of the results follow.
normalized growth values, listed per item
Lab note: record the figure alone, no unit after it.

// below: answered molecules
O=C(O)c1c2ccccc2cc2ccccc12 : 0.985
CC(N)CCCC(C)(C)O (stereo unspecified) : 1.01
COc1ccc2c(c1)OCc1c-2oc2cc(OC)ccc12 : 1.01
C[N+](C)(C)CCOC(N)=O : 0.974
CC(=O)c1c(O)c(C)c(O)c2c1oc1c(C(C)=O)c(O)c(C)c(O)c12 : 0.964
COC1=CC(=O)C[C@@H](C)[C@]12Oc1c(Cl)c(OC)cc(OC)c1C2=O : 0.99
NCC1CCC(C(=O)O)CC1 (stereo unspecified) : 0.998
COc1ccc2c(C)cc(=O)oc2c1 : 1.02

Q: Any idea what normalized growth was measured for `CCOC(=O)[C@H](CCc1ccccc1)N[C@H]1CCc2ccccc2N(CC(=O)O)C1=O` ?
Result: 0.971

Q: Any idea what normalized growth was measured for CC(=O)OCC(=O)[C@@]1(O)CCC2C3CCC4=CC(=O)CC[C@]4(C)C3C(=O)C[C@@]21C (stereo partly specified) ?
Result: 1.03

Q: Any idea what normalized growth was measured for `O=C(O)c1cc2ccccc2c(Cc2c(O)c(C(=O)O)cc3ccccc23)c1O` ?
Result: 0.994

Q: Any idea what normalized growth was measured for `Cc1cc(O)c(C)c(O)c1C(=O)O` ?
Result: 0.989

Q: Any idea what normalized growth was measured for CC1CC2C3CCC4=CC(=O)C=C[C@]4(C)[C@@]3(F)[C@@H](O)C[C@]2(C)[C@@]1(O)C(=O)CO (stereo partly specified) ?
Result: 0.973

Q: Any idea what normalized growth was measured for `c1ccc(N=Nc2ccccc2)cc1` ?
Result: 1.03

Q: Any idea what normalized growth was measured for OCC(O)C(O)C(O)CO (stereo unspecified) ?
Result: 0.99

Q: Any idea what normalized growth was measured for `CC1(C)OC(=O)NC1=O` ?
Result: 0.983
